- measurementTarget: T1, recombinant human EGFR extracellular domain with 6xHis (human, UniProt P00533 25-645)
- T1 construct: In-house produced; also called 6xHis EGFR ECD; soluble human EGFR ECD; not shown: 6xHis tag
- testMethodNotes: SPR competition, competitor Erbitux
measurementLabel: % inhibition (%)

binder="antibody 1344 (antibody, human IgG1, kappa, V domains shown, Chimeric IgG1 kappa) VH: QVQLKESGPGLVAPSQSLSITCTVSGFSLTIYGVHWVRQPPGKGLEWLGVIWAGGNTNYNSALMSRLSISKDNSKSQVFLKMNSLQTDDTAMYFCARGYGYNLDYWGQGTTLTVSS VL: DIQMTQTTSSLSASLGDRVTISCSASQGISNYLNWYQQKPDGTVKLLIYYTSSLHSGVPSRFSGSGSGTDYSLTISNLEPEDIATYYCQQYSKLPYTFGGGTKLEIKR" reportedmeasurement=-4
binder="antibody 1030 (antibody, human IgG1, kappa, V domains shown, Chimeric IgG1 kappa) VH: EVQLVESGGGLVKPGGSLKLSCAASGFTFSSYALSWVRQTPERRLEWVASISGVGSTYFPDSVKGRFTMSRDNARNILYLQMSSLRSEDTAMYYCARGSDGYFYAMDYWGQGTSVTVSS VL: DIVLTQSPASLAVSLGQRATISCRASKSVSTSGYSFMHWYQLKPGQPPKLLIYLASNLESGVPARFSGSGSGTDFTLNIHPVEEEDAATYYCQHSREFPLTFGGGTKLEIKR" reportedmeasurement=-1
binder="antibody 1284 (antibody, human IgG1, kappa, V domains shown, Chimeric IgG1 kappa) VH: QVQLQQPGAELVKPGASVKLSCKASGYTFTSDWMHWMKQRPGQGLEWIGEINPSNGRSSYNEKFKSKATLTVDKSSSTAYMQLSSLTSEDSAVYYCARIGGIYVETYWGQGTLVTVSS VL: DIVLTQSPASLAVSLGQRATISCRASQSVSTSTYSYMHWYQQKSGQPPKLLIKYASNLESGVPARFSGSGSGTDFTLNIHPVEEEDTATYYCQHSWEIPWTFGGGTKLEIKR" reportedmeasurement=-2
binder="antibody 1257 (antibody, human IgG1, kappa, V domains shown, Chimeric IgG1 kappa) VH: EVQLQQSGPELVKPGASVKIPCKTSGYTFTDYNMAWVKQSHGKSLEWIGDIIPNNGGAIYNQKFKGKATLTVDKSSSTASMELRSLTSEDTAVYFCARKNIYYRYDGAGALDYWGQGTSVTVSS VL: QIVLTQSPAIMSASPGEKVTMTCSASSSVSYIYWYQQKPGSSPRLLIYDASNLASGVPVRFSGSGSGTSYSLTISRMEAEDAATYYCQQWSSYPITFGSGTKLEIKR" reportedmeasurement=0
